test system: Streptococcus pneumoniae; test: Antibacterial activity against Streptococcus pneumoniae U2A1053 harboring parC Ser79Phe mutant gene by agar dilution method; assay type: functional
Kindly supply the reported MIC values for the records listed here.
Answer with a number only, understood to be in µg/mL.

According to the records, this compound `CCn1cc(C(=O)O)c(=O)c2cc(F)c(N3CCNCC3)cc21` displays MIC of 64

According to the records, this compound `COc1c(N2C[C@@H]3CCCN[C@@H]3C2)c(F)cc2c(=O)c(C(=O)O)cn(C3CC3)c12` displays MIC of 0.25

According to the records, this compound `CCn1cc(C(=O)O)c(=O)c2cc(F)c(N3CCN(C)CC3)cc21` displays MIC of 128

According to the records, this compound `O=C(O)c1cn(C2CC2)c2cc(N3CCNCC3)c(F)cc2c1=O` displays MIC of 4

According to the records, this compound `C[C@@H]1CN(c2c(F)c(N)c3c(=O)c(C(=O)O)cn(C4CC4)c3c2F)C[C@H](C)N1` displays MIC of 0.25

====

system: Streptococcus pneumoniae; experiment: Antibacterial activity against Streptococcus pneumoniae R6 Tr6 harboring gyrA Ser81Phe mutant gene by agar dilution method; type: functional
Kindly supply the reported MIC values for the records listed here.
Answer with a number only, understood to be in µg/mL.

Let me check: `CCn1cc(C(=O)O)c(=O)c2cc(F)c(N3CCN(C)CC3)cc21` , system Streptococcus pneumoniae, measured MIC is 8

Let me check: `CCn1cc(C(=O)O)c(=O)c2cc(F)c(N3CCNCC3)cc21` , system Streptococcus pneumoniae, measured MIC is 4

Let me check: `COc1c(N2C[C@@H]3CCCN[C@@H]3C2)c(F)cc2c(=O)c(C(=O)O)cn(C3CC3)c12` , system Streptococcus pneumoniae, measured MIC is 0.5

Let me check: `O=C(O)c1cn(C2CC2)c2cc(N3CCNCC3)c(F)cc2c1=O` , system Streptococcus pneumoniae, measured MIC is 1

Let me check: `C[C@@H]1CN(c2c(F)c(N)c3c(=O)c(C(=O)O)cn(C4CC4)c3c2F)C[C@H](C)N1` , system Streptococcus pneumoniae, measured MIC is 1

====

Kindly supply the reported log10 of MIC values for the records listed here.
tested on: Streptococcus pneumoniae; assay: Antibacterial activity against Streptococcus pneumoniae U2A1686 harboring gyrA Glu85Lys mutant gene by agar dilution method; format: functional
Values are log10 of MIC in µg/mL.

Let me check: O=C(O)c1cn(C2CC2)c2cc(N3CCNCC3)c(F)cc2c1=O [CIPROFLOXACIN] , system Streptococcus pneumoniae, measured log10 of MIC is 0.00

Let me check: CCn1cc(C(=O)O)c(=O)c2cc(F)c(N3CCNCC3)cc21 [NORFLOXACIN] , system Streptococcus pneumoniae, measured log10 of MIC is 0.60

Let me check: CCn1cc(C(=O)O)c(=O)c2cc(F)c(N3CCN(C)CC3)cc21 [PEFLOXACIN] , system Streptococcus pneumoniae, measured log10 of MIC is 0.90

Let me check: C[C@@H]1CN(c2c(F)c(N)c3c(=O)c(C(=O)O)cn(C4CC4)c3c2F)C[C@H](C)N1 [SPARFLOXACIN] , system Streptococcus pneumoniae, measured log10 of MIC is 0.30

Let me check: COc1c(N2C[C@@H]3CCCN[C@@H]3C2)c(F)cc2c(=O)c(C(=O)O)cn(C3CC3)c12 [MOXIFLOXACIN] , system Streptococcus pneumoniae, measured log10 of MIC is -0.30
